biological target: human factor H, full length (human, UniProt P08603 19-1231); experiment: cell-based or functional assay
Sequence (P08603 19-1231): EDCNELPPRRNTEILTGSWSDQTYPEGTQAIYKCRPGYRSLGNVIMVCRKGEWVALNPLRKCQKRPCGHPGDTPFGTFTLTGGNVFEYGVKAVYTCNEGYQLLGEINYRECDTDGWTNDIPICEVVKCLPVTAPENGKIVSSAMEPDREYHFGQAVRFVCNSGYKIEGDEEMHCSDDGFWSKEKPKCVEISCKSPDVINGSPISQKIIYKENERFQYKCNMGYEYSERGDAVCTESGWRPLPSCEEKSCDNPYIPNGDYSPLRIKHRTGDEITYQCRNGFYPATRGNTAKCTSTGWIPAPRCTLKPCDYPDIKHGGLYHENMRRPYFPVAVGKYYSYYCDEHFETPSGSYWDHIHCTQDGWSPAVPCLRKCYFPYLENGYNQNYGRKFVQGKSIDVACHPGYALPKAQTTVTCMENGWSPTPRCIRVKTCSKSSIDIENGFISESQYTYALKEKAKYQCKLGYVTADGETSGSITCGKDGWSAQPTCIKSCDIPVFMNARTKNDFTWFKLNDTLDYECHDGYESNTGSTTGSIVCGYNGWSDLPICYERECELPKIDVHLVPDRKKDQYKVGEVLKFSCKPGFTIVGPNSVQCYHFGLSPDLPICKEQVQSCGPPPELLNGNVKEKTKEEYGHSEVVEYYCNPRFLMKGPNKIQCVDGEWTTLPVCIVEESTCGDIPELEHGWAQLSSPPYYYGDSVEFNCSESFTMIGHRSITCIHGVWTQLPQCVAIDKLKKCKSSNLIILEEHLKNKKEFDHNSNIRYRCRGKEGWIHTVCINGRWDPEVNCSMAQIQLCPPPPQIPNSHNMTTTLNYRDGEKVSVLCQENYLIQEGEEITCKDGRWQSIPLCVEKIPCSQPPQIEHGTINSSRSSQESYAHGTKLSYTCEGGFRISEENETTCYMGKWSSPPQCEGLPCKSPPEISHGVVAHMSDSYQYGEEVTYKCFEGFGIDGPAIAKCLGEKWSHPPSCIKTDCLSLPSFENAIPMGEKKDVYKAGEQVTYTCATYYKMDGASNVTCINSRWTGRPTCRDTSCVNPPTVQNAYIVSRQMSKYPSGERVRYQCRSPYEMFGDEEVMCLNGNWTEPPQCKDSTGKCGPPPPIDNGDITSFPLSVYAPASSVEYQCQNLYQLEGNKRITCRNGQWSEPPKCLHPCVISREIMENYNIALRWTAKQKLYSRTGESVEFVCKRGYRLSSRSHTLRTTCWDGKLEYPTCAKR
assayReadout: IC50 (nM), LPS C3b dep. assay

INSERT INTO assay_data (binder, measurement) VALUES
  ('anti-FH.07 (antibody, V domains shown) VH: QVQLQQSGPGLVQPSQSLSITCTVSDFSLARYGVHWIRQSPGKGLEWLGVIWSGGTADYNAAFISRLNINKDNSKSQVFFKMNSLQANDTAIYYCARNFGNYAVDYWGQGTS VL: QIVLSQSPTFLSASPGEKVTVTCRASSSVKYMHWYQQKPGASPKPWIFATSNLASGVPARFSGSGSGTSYSLTISRVEAEDAATYYCQQWSIIPPTFGNGTKLELK', 38.8),
  ('anti-FHR-1.11E1 (antibody, V domains shown, Mouse monoclonal from a hybridoma, raised against recombinant human FHR-1) VH: QVQLKQSGPGLVQPSQSLSITCTVSGFSLTNYGVHWVRQPPGKGLEWLGVIWSGGNTDYNAAFISRLSISKDNSKSQVFFKMNSLQADDTAIYYCAKNGDYGYTMDYWGQGTSVTVSS VL: DVVMTQTPLSLPVSLGDQASISCRSSQSLVHSNGNTYLHWYLQKPGQSPKLLIYKLSNRFSGVPDRFSGSGSGTDFTLKISRVEAEDLGVYFCSQSTHVPFTFGSGTKLEIK', 25),
  ('anti-FHR-1.3B4 (antibody, V domains shown, Mouse monoclonal from a hybridoma, raised against recombinant human FHR-1; also called aFHR-1 3B4) VH: QVQLRQSGPGLVQPSQSLSITCTVSGFSLTNYGVYWVRQSPGKGLEWLGVIWSGGTTDYSAAFISRLSISKDNSKSQVFFKMNSLQADDTAIYYCARNFGNYAMDYWGQGTSVTVSS VL: QIVLSQSPTILSASPGEKVTMTCRASSSVTYMHWYQQKPGSSPKPWIYATSNLASGVPARFSGSGSGTSYSLTISRVEAEDAATYYCQQRSSSNPLTFGAGTKLELK', 38.4),
  ('anti-FHR-1.8E4 (antibody, V domains shown, Mouse monoclonal from a hybridoma, raised against recombinant human FHR-1; also called aFHR-1 8E4) VH: QVQLKQSGPGLVQPSQSLSITCTVSDFSLTNSGVHWVRQSPGKGLEWLGVIWSGGTTEYNAAFMSRLTITKDNSKSQVFFKMNSLLVDDTGIYYCARNFGNYAVDYWGQGTSVTVSS VL: QIVLSQSPAILSASPGEKVTMTCRASSSVRYMHWYQQKAGSSPTAWIFATSNLASGVPPRFSGSGSGTSYSLTISRVEAEDAATYYCQQWGTKPPTFGAGTKLELK', 26.3);
